Reference source: paper PMC6409032

Experiment: Cytotoxicity study in THP-1 monocytes (Alamar Blue)
Assay type: cell-based
Recorded conditions: human, mean ± SD, n = 3, read-out: Cytotoxic effect in THP-1 LC50
Give CC50 at 72 h for every item shown.
// note: answer is a bare numeric in mg/L

State its CC50 at 72 h: O=C(O)c1cc(O)c2c(c1)C(=O)c1cccc(O)c1C2=O
174

State its CC50 at 72 h: O=C1c2c(O)cccc2C(C2OC(CO)C(O)C(O)C2O)c2cc(CO)cc(O)c21 (stereo not shown)
154

State its CC50 at 72 h: C[C@@H]1[C@H](O)[C@@H](C)/C=C/C=C/C=C/C=C/C=C/C=C/C=C/[C@H](O[C@@H]2O[C@H](C)[C@@H](O)[C@H](N)[C@@H]2O)C[C@@H]2O[C@](O)(C[C@@H](O)C[C@@H](O)[C@H](O)CC[C@@H](O)C[C@@H](O)CC(=O)O[C@H]1C)C[C@H](O)[C@H]2C(=O)O [Amphotericin B, amphotericin B, reference compound]
10.2

State its CC50 at 72 h: O=C1c2cccc(O)c2C(=O)c2c(O)cc(CO)cc21
145
